# Test system: 857933-349-R-J2-PDC complex spheroids, viability;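 note: spheroids exposed to compounds for one week before readout; percent viability relative to vehicle DMSO wells taken as 100%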
# experiment: Anticancer human tumor 857933-349-R-J2-PDC patient-derived colon adenocarcinoma cell line growth inhibition [GQUAD]
# condition.notes: second compound 0.1 µM; first compound 0.00316 µM; active compounds read low
measured.attribute: viability, T/C (%)
Kindly answer with a numeric value in %, unit omitted.

* Cn1ncnc1[C@H]1c2n[nH]c(=O)c3cc(F)cc(c23)N[C@@H]1c1ccc(F)cc1 + Cc1cnc(CNC(=O)c2c(=O)c3ccc(N4CCCN(C)CC4)nc3n3c2sc2ccccc23)cn1 | 73.6
* Cn1ncnc1[C@H]1c2n[nH]c(=O)c3cc(F)cc(c23)N[C@@H]1c1ccc(F)cc1 + Cc1[nH]c2ccc(F)cc2c1-c1nc2c3cccnc3c3ncccc3c2[nH]1 | 105

We next turn to a different compound, shown below.
Input line: I am curious: what viability, T/C value has been reported for Cc1[nH]c2ccccc2c1CCNCc1ccc(/C=C/C(=O)NO)cc1 + Cc1[nH]c2ccc(F)cc2c1-c1nc2c3cccnc3c3ncccc3c2[nH]1 ?
Output line: 101
